These data points were gathered from patent US20240052052A1.

- system: T1, human CD24 (human, UniProt P25063 27-59, heavily glycosylated, GPI-anchored (as described in the background))
- T1 construct: whole, on cells; Target of all cell-based FACS assays; also called hCD24; Cluster of differentiation 24
- T1 chain (looked up): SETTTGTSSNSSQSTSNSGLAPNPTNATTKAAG
- protocol: FACS, MCF7 cells
Recorded FACS MFI for the following binders

[
  {
    "binder": "81A1F8 (antibody, V domains shown, mouse monoclonal antibody) VH: EVQLQQSGPELVKPGASVKISCKATGYLFTGYYMNWVKQSPEKSLEWIGEINPNTGDTNNNQKFKAKATMTVDRSSSTAYMQLKRLTSEDSAVYYCVRRDYGTSLDYWGQGTTLTVSS VL: DVQITQSPSYLAASPGETITINCRASKSINKYLAWYQEKPGKTNKLLIHSGSTLQSGIPSRFSGSRSGTDFTLTISNLEPEDFAMYYCQQHNEYPITFGAGTKLELK",
    "recorded-measurement": 11500
  }
]

Please turn your attention to the following entry.
Notebook: 73H5-1G2 (antibody, V domains shown, mouse monoclonal antibody) VH: QVQLKQSGPGLVQPSQSLSITCTVSGFSLTNYGVHWIRQSPGKGLEWLGVIWRGGSTDYNAAFMSRLSITKDNSKSQVFFQMNSLQAADTAIYYCANNYGYDCFAYWGQGTLVTVSA VL: DVQITQSPSYLAASPGETITINCRASKSIIKYLAWYQEKPGKTNKLLIYSGSTLQSGIPSRFSGSGSGTDFTLTITSLEPEDFAMYYCQQHNEYPLTFGAGTRLELK , FACS MFI read as 373
